// provenance: patent US10662146B2

assay overview: Single dose oral PK study in male Sprague Dawley rats (plasma by LC-MS/MS)
Format: in vivo
measurement parameters: male, Sprague-Dawley, rat, in vivo; PRX-P6-011 oral 5 mg/kg b.w., 2.00 h, mean; read-out: Plasma concentrations of PRX-P6-011
measured property: concentration at 2 h (ng/mL)

compound="CCN(C(=O)[C@@H](NC(=O)[C@@H](N)C(C)C)C(C)C)C1C2CCC(C2)C1c1ccccc1 (single isomer, unassigned) [PRX-P6-011]" measured_property="concentration at 2 h" endpoint_unit=ng/mL assay_result=7.87

----------
assay overview: Single dose intravenous PK study in male Sprague Dawley rats (plasma by LC-MS/MS)
Assay type: in vivo
measurement parameters: male, Sprague-Dawley, rat, plasma, iv, 2 mg/kg, PRX-P5-006 IV 2 mg/kg b.w., individual animals; read-out: CL of PRX-P5-006
measured property: clearance (L/h/kg)

molecule="CCCCCCCCCCCCCCCCCC(=O)OC(C)OC(=O)N(CC)C1C2CCC(C2)C1c1ccccc1 (single isomer, unassigned)" measured_property=clearance assay_result=0.358

----------
assay overview: Single dose oral PK study in male Sprague Dawley rats (plasma by LC-MS/MS)
Type: in vivo
measurement parameters: male, Sprague-Dawley, rat, in vivo; PRX-P5-011 oral (5 mg/kg equivalent), 0.50 h, individual animals; read-out: Plasma concentration of PRX-P5-011
measured property: concentration at 0.5 h (ng/mL)

compound="CCCCCCCCCCCCCCCCCC(=O)OC(C)OC(=O)N(CC)C1C2CCC(C2)C1c1ccccc1 (single isomer, unassigned)" assay_result=0

----------
assay overview: Single dose oral PK study in male Sprague Dawley rats (plasma by LC-MS/MS)
Assay type: in vivo
measurement parameters: male, Sprague-Dawley, rat, in vivo; PRX-P6-011 oral 5 mg/kg b.w., 0.50 h, mean; read-out: Plasma concentrations of PRX-P6-011
measured property: concentration at 0.5 h (ng/mL)

molecule="CCN(C(=O)[C@@H](NC(=O)[C@@H](N)C(C)C)C(C)C)C1C2CCC(C2)C1c1ccccc1 (single isomer, unassigned)" endpoint_unit=ng/mL assay_result=20.8
